Origin of the recorded values: ChEMBL document CHEMBL5370535

I'd be grateful if you could share measured MIC for these entries.
System: Enterococcus faecalis
Assay: Antibacterial activity against Enterococcus faecalis assessed as bacterial growth inhibition incubated for 24 hrs by CLSI based two serial dilution assay
Type: functional
Enter your answer as a number in µM; do not include the unit.

Task: Item CCCCN1C(=O)/C(=N\Nc2nccs2)c2cc(OC)ccc21 has what recorded MIC?
Result: 4

Task: Item C#CCN1C(=O)/C(=N\Nc2nccs2)c2ccccc21 has what recorded MIC?
Result: 256

Task: Item CCn1cc(C(=O)O)c(=O)c2cc(F)c(N3CCNCC3)cc21 [NORFLOXACIN] has what recorded MIC?
Result: 4

Task: Item CCN1C(=O)/C(=N\Nc2nccs2)c2ccccc21 has what recorded MIC?
Result: 32

Task: Item CCCCN1C(=O)/C(=N\Nc2nc(C)cs2)c2ccccc21 has what recorded MIC?
Result: 16

Task: Item CCCCN1C(=O)/C(=N\Nc2nccs2)c2ccc(F)cc21 has what recorded MIC?
Result: 32

Task: Item CCCCN1C(=O)/C(=N\Nc2nccs2)c2ccc(Br)cc21 has what recorded MIC?
Result: 4

Task: Item CCCCCCCCN1C(=O)/C(=N\Nc2nccs2)c2ccccc21 has what recorded MIC?
Result: 32

Task: Item CCCCN1C(=O)/C(=N\Nc2nccs2)c2cccc(Cl)c21 has what recorded MIC?
Result: 1

Task: Item CCCCN1C(=O)/C(=N\Nc2nccs2)c2c(Cl)cccc21 has what recorded MIC?
Result: 128

Task: Item O=C1Nc2ccccc2/C1=N/Nc1nccs1 has what recorded MIC?
Result: 128

Task: Item O=C1/C(=N\Nc2nccs2)c2ccccc2N1Cc1ccccc1F has what recorded MIC?
Result: 8

Task: Item CCCCN1C(=O)/C(=N\Nc2nccs2)c2cc(C)ccc21 has what recorded MIC?
Result: 32

Task: Item CCCCN1C(=O)/C(=N\Nc2nccs2)c2cc([N+](=O)[O-])ccc21 has what recorded MIC?
Result: 512

Task: Item O=C1/C(=N\Nc2nccs2)c2ccccc2N1Cc1cccc(F)c1 has what recorded MIC?
Result: 8

Task: Item O=C1/C(=N\Nc2nccs2)c2ccccc2N1Cc1cccc(Cl)c1 has what recorded MIC?
Result: 32

Task: Item O=C1/C(=N\Nc2nccs2)c2ccccc2N1Cc1ccc(Cl)cc1Cl has what recorded MIC?
Result: 64

Task: Item CCCCN1C(=O)/C(=N\Nc2nccs2)c2cc(Br)cc(Br)c21 has what recorded MIC?
Result: 0.5

Task: Item O=C1/C(=N\Nc2nccs2)c2ccccc2N1Cc1ccc(F)cc1 has what recorded MIC?
Result: 2

Task: Item CCCCN1C(=O)/C(=N\Nc2nc(-c3ccc(F)cc3F)cs2)c2ccccc21 has what recorded MIC?
Result: 512

Task: Item CCCCN1C(=O)/C(=N\Nc2nccs2)c2c(Cl)cc(Cl)cc21 has what recorded MIC?
Result: 4

Task: Item CCCCN1C(=O)/C(=N\Nc2nc(C)c(C(=O)OCC)s2)c2ccccc21 has what recorded MIC?
Result: 256

Task: Item CCCCN1C(=O)/C(=N\Nc2nccs2)c2cc(Br)ccc21 has what recorded MIC?
Result: 32

----------
Tested on: Enterococcus faecalis
Assay: Antibacterial activity against Enterococcus faecalis assessed as bacterial growth inhibition incubated for 24 hrs by CLSI based two serial dilution assay
Format: functional
I'd be grateful if you could share measured MIC for these entries.
Enter your answer as a number in µM; do not include the unit.

Task: # returns recorded MIC (system: Enterococcus faecalis) for CCCCCCCCCCCCN1C(=O)/C(=N\Nc2nccs2)c2ccccc21
Result: 4

Task: # returns recorded MIC (system: Enterococcus faecalis) for CCCN1C(=O)/C(=N\Nc2nccs2)c2ccccc21
Result: 16

Task: # returns recorded MIC (system: Enterococcus faecalis) for C=CCN1C(=O)/C(=N\Nc2nccs2)c2ccccc21
Result: 64

Task: # returns recorded MIC (system: Enterococcus faecalis) for O=C(N[C@H](CO)[C@H](O)c1ccc([N+](=O)[O-])cc1)C(Cl)Cl
Result: 8

Task: # returns recorded MIC (system: Enterococcus faecalis) for CCCCCCN1C(=O)/C(=N\Nc2nccs2)c2ccccc21
Result: 4
